target: … (SEQ ID NO: 1)-HLA-A*02 complex (soluble, biotinylated) (human); test: SPR (BIAcore) or BLI (Octet) per Example 3, biotinylated pHLA immobilised, 25 C
pKd: −log10 of the molar value.
# pKd per entry
measured.quantity: pKd

INSERT INTO assay_data (binder, experimental_result) VALUES
  ('ImmTAC molecule comprising a79 (SEQ ID NO: 7) and b64 (SEQ ID NO: 12) (TCR, part only; not given: anti-CD3 scFv, linker, TCR constants, part only) TCR alpha, part: GDAKTTQPNSMESNEEEPVHLPCNHSTISGTDYIHWYRQLPSQGPEYVIHGLTSNVNNRMASLAIAEDRKSSTLILHRATLRDAAVYYCILILGHSRLGNYIATFGKGTKLSVIP TCR beta, part: DGGITQSPKYLFRKEGQNVTLSCEQNLNHDAMYWYRQDPGQGLRLIYYSQIMNDEQKGDIAEGYSVSREKKESFPLTVTSAQKNPTAFYLCASSWWTGGSAPIRFGPGTRLTVT', 9.86),
  ('ImmTAC molecule comprising a79 (SEQ ID NO: 7) and b69 (SEQ ID NO: 14) (TCR, part only; not given: anti-CD3 scFv, linker, TCR constants, part only) TCR alpha, part: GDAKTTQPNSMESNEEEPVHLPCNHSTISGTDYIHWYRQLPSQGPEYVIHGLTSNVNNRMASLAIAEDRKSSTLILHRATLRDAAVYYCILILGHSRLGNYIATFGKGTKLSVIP TCR beta, part: DGGITQSPKYLFRKEGQNVTLSCEQNLNHDAMYWYRQDPGQGLRLIYYSQIMGDEQKGDIAEGYSVSREKKESFPLTVTSAQKNPTAFYLCASSWWTGGSAEIRFGPGTRLTVT', 10.28),
  ('ImmTAC molecule comprising a79 (SEQ ID NO: 7) and b76 (SEQ ID NO: 24) (TCR, part only; not given: anti-CD3 scFv, linker, TCR constants, part only) TCR alpha, part: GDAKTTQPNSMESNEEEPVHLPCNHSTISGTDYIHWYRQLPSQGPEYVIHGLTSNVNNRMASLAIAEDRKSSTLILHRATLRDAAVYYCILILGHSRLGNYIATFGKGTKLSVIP TCR beta, part: DGGITQSPKYLFRKEGQNVTLSCEQNLNHDAMYWYRQDPGQGLRLIYYSQIMGDEQKGDIAEGYSVSREKKESFPLTVTSAQKNPTAFYLCASSWWTGGSSPIRFGPGTRLTVT', 10.93),
  ('ImmTAC molecule comprising a79 (SEQ ID NO: 7) and b73 (SEQ ID NO: 16) (TCR, part only; not given: anti-CD3 scFv, linker, TCR constants, part only) TCR alpha, part: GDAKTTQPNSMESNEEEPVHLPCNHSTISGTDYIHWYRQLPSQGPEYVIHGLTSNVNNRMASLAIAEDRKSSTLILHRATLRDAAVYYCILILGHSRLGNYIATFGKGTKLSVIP TCR beta, part: DGGITQSPKYLFRKEGQNVTLSCEQNLNHDAMYWYRQDPGQGLRLIYYSQIMGDEQKGDIAEGYSVSREKKESFPLTVTSAQKNPTAFYLCASSWWTGGAAPISFGPGTRLTVT', 9.88);

Hello, the source for this data is patent US20240368243A1, in case you need it.
